# mortality at 400 ppm listing for each entry below
tested on: southern armyworm (Spodopetra eridania Cramer); assay: Mite/insect screen, sprayed squash leaves (SAW); type: in vivo; settings: Spodoptera eridania, percent mortality; spray rate 400 ppm; read-out: SAW RESULTS %

compound: N#Cc1ccc(CCOc2ncnc3ccccc23)cc1 [Example 183]
mortality at 400 ppm / %: 0

compound: CC(C)(C)c1ccc(CCOc2ncnc3ccc(Br)cc23)cc1 [Example 175]
mortality at 400 ppm / %: 0

compound: Fc1ccccc1CCOc1ncnc2ccccc12 [Example 48, 4-[2-(2-fluorophenyl)ethoxy]quinazoline]
mortality at 400 ppm / %: 0

compound: Clc1ccccc1OCCOc1ncnc2ccccc12 [Example 110, 4-[2-(2-chlorophenoxy)ethoxy]quinazoline]
mortality at 400 ppm / %: 0

compound: c1ccc2cc(CCOc3ncnc4ccccc34)ccc2c1 [Example 80, 4-[2-(2-naphthyl)ethoxy]quinazoline]
mortality at 400 ppm / %: 0

compound: CC(COc1ncnc2ccccc12)c1ccc(Oc2ccccc2)cc1 (stereo not shown) [Example 161]
mortality at 400 ppm / %: 100

compound: CCOc1ccc(CCCOc2ncnc3ccccc23)cc1 [Example 158, 4-[3-(4-ethoxyphenyl)propoxy]quinazoline]
mortality at 400 ppm / %: 0

compound: c1ccc2c(c1)Cc1cc(CCOc3ncnc4ccccc34)ccc1-2 [Example 20, 4-[2-(9H-fluoren-2-yl)ethoxy]quinazoline]
mortality at 400 ppm / %: 60

compound: Cc1cccc(CCOc2ncnc3ccccc23)c1 [Example 97, 4-[2-(3-methylphenyl)ethoxy]quinazoline]
mortality at 400 ppm / %: 0

compound: CCC(COc1ncnc2c(F)cccc12)c1ccc(-c2ccccc2)cc1 (stereo not shown) [Example 197]
mortality at 400 ppm / %: 0

compound: c1ccc(Oc2ccc(CCCc3ncnc4ccccc34)cc2)cc1 [Example 164, 4-[3-(4-phenoxyphenyl)propyl]quinazoline]
mortality at 400 ppm / %: 40

compound: C=CC(CCOc1ncnc2ccccc12)CCc1ccccc1 (stereo not shown) [Example 130]
mortality at 400 ppm / %: 0

compound: c1ccc2c(CCOc3ncnc4ccccc34)cccc2c1 [Example 91, 4-[2-(1-naphthyl)ethoxy]quinazoline]
mortality at 400 ppm / %: 0

compound: c1ccc(C(COc2ncnc3ccccc23)c2ccccc2)cc1 [Example 67, 4-(2,2-diphenylethoxy)quinazoline]
mortality at 400 ppm / %: 0

compound: CC(C)Cc1ccc(C(C)COc2ncnc3c(F)cccc23)cc1 (stereo not shown) [Example 113]
mortality at 400 ppm / %: 40

compound: CC(C)c1ccccc1CCOc1ncnc2c(F)cccc12 [Example 195]
mortality at 400 ppm / %: 0

compound: c1ccc(-c2ccc(CCNc3ncnc4ccccc34)cc2)cc1 [Example 106]
mortality at 400 ppm / %: 80

compound: Fc1ccccc1Oc1ccc(CCOc2ncnc3ccccc23)cc1 [Example 162]
mortality at 400 ppm / %: 0

compound: CC(C)(C)c1ccc(CCOc2ncnc3ccc(Cl)cc23)cc1 [Example 174]
mortality at 400 ppm / %: 0

compound: Clc1cccc2c(NCCc3cccc(Oc4ccccc4)c3)ncnc12 [Example 166]
mortality at 400 ppm / %: 0

compound: c1ccc(Oc2cccc(CCOc3ncnc4ccccc34)c2)cc1 [Example 68, 4-[2-(3-phenoxyphenyl)ethoxy]quinazoline]
mortality at 400 ppm / %: 0

compound: COc1ccc(CCOc2ncnc3c(F)cccc23)cc1 [Example 132]
mortality at 400 ppm / %: 0

compound: CCCCOc1ccc(CCOc2ncnc3c(F)cccc23)cc1 [Example 156]
mortality at 400 ppm / %: 0

compound: OC(CNc1ncnc2ccccc12)c1ccc2ccccc2c1 (stereo not shown) [Example 105]
mortality at 400 ppm / %: 0

compound: c1ccc(Oc2ccc(CCNc3ncnc4ccccc34)cc2)cc1 [Example 104]
mortality at 400 ppm / %: 100

compound: CC(C)c1ccccc1CCOc1ncnc2ccccc12 [Example 135]
mortality at 400 ppm / %: 0

compound: CC(C)(C)c1ccc(CCCNc2ncnc3ccc(Cl)cc23)cc1 [Example 140]
mortality at 400 ppm / %: 0

compound: COc1ccccc1CCOc1ncnc2ccccc12 [Example 14, 4-[2-(2-methoxyphenyl)ethoxy]quinazoline]
mortality at 400 ppm / %: 0

compound: COc1ccc(CCOc2ncnc3c(F)cccc23)cc1OC [Example 112]
mortality at 400 ppm / %: 0

compound: COc1ccc(CCOc2ncnc3ccccc23)cc1 [Example 49, 4-[2-(4-methoxyphenyl)ethoxy]quinazoline]
mortality at 400 ppm / %: 0

compound: CC(C)c1ccc(CCCCOc2ncnc3ccccc23)cc1 [Example 168]
mortality at 400 ppm / %: 0

compound: CCCCOc1ccc(CCOc2ncnc3ccccc23)cc1 [Example 180, 4-[2-(4-butoxyphenyl)ethoxy]quinazoline]
mortality at 400 ppm / %: 100

compound: Fc1cccc2c(NCCc3ccc(Oc4ccccc4)cc3)ncnc12 [Example 101]
mortality at 400 ppm / %: 0

compound: CCOc1ccc(CCOc2ncnc3c(F)cccc23)cc1 [Example 170]
mortality at 400 ppm / %: 100

---

Test system: southern armyworm (Spodopetra eridania Cramer)
Assay: Mite/insect screen, sprayed squash leaves (SAW)
Assay type: in vivo
Settings: Spodoptera eridania, percent mortality; spray rate 400 ppm; read-out: SAW RESULTS %
Experimental: The compounds of Examples 1-203 were tested for miticidal and insecticidal activity in the following mite/insect screen. Each test compound was formulated by dissolving the compound in acetone/alcohol (50:50) mixture containing 23 g of "TOXIMUL R" (sulfonate/nonionic emulsifier blend) and 13 g of "TOXIMUL S" (sulfonate/nonionic emulsifier blend) per liter. […] After standard exposure periods, percent mortality and phytotoxicity were evaluated. […]
test.readout: mortality at 400 ppm (%)

compound: FC(F)(F)c1ccc(CCOc2ncnc3ccccc23)cc1 [Example 134]
unit.text: %
assay.value: 100
//
compound: Fc1cccc2c(OCCc3ccc(C(F)(F)F)cc3)ncnc12 [Example 118]
unit.text: %
assay.value: 100
//
compound: FC(F)(F)c1cccc(Oc2ccc(CCOc3ncnc4ccccc34)cc2)c1 [Example 188]
unit.text: %
assay.value: 80
//
compound: c1ccc2cc(CCNc3nc(NCCc4ccc5ccccc5c4)c4ccccc4n3)ccc2c1 [Example 32]
unit.text: %
assay.value: 0
//
compound: Clc1ccc2ncnc(NCCc3ccccc3Oc3ccccc3)c2c1 [Example 57]
unit.text: %
assay.value: 0

---

tested on: southern armyworm (Spodopetra eridania Cramer); experiment: Mite/insect screen, sprayed squash leaves (SAW); format: in vivo; details: Spodoptera eridania, percent mortality; spray rate 400 ppm; read-out: SAW RESULTS %
Recorded mortality at 400 ppm, one value per entry.

compound: CC(C)(C)c1ccc(CCCOc2ncnc3ccccc23)cc1 [Example 138]
mortality at 400 ppm: 0%
--
compound: Cc1cc(C)c(CCOc2ncnc3ccccc23)c(C)c1 [Example 43]
mortality at 400 ppm: 0%
--
compound: FC(F)(F)c1ccccc1CCOc1ncnc2ccccc12 [Example 47]
mortality at 400 ppm: 0%
--
compound: Cc1ccccc1CCOc1ncnc2ccccc12 [Example 103, 4-[2-(2-methylphenyl)ethoxy]quinazoline]
mortality at 400 ppm: 0%
--
compound: CC(COc1ncnc2ccccc12)c1cccc(Oc2ccccc2)c1 (stereo not shown) [Example 182]
mortality at 400 ppm: 0%
--
compound: CC(C)(C)c1ccc(CCCc2ncnc3ccccc23)cc1 [Example 127]
mortality at 400 ppm: 0%
--
compound: Oc1ccc(CCOc2ncnc3ccccc23)cc1 [Example 115, 4-[2-(4-hydroxyphenyl)ethoxy]quinazoline]
mortality at 400 ppm: 0%
--
compound: Brc1ccc2ncnc(NCCc3ccc(Oc4ccccc4)cc3)c2c1 [Example 177]
mortality at 400 ppm: 0%
--
compound: c1ccc(-c2ccc(CCOc3ncnc4ccccc34)cc2)cc1 [Example 85]
mortality at 400 ppm: 80%
--
compound: Fc1cccc2c(OCCc3ccc(Cl)cc3)ncnc12 [Example 55]
mortality at 400 ppm: 0%
--
compound: Oc1ccc(CCCOc2ncnc3ccccc23)cc1 [Example 121]
mortality at 400 ppm: 0%
--
compound: CC(C)(C)c1ccc(CCNc2ncnc3c(F)cccc23)cc1 [Example 100]
mortality at 400 ppm: 0%
--
compound: Cc1ccc(CCNc2ncnc3c(F)cccc23)cc1 [Example 77]
mortality at 400 ppm: 0%
--
compound: CCOc1ccc(CCOc2ncnc3ccccc23)cc1OC [Example 21]
mortality at 400 ppm: 0%
--
compound: COc1cccc(CCOc2ncnc3ccccc23)c1 [Example 13, 4-[2-(3-methoxyphenyl)ethoxy]quinazoline]
mortality at 400 ppm: 0%
--
compound: CC(C)c1ccc(CCOc2ncnc3c(F)cccc23)cc1 [Example 16]
mortality at 400 ppm: 0%
--
compound: Cc1ccc(CCOc2ncnc3ccccc23)cc1 [Example 87, 4-[2-(4-methylphenyl)ethoxy]quinazoline]
mortality at 400 ppm: 50%
--
compound: Fc1cccc2c(OCCc3ccc(Oc4ccccc4)cc3)ncnc12 [Example 10]
mortality at 400 ppm: 100%
--
compound: Fc1cccc2c(NCCc3ccc(-c4ccccc4)cc3)ncnc12 [Example 102]
mortality at 400 ppm: 100%

---

system: Twospotted spider mites (Tetranychus urticae Koch); assay: Mite/insect screen, sprayed squash cotyledons (SM); type: in vivo; conditions: Tetranychus urticae, percent mortality; spray rate 400 ppm; read-out: SM RESULTS %
Binarize mortality at 400 ppm at 60%; below is Met, at or above is Not met.

molecule: CC(COc1ncnc2ccccc12)c1ccc(Oc2ccccc2)cc1 (stereo not shown)
tested.target: Twospotted spider mites (Tetranychus urticae Koch)
assigned.label: Met

molecule: Fc1ccc(-c2ccc(CCOc3ncnc4ccccc34)cc2)cc1
tested.target: Twospotted spider mites (Tetranychus urticae Koch)
assigned.label: Not met

molecule: CC(C)c1ccc(CCCc2ncnc3ccccc23)cc1
tested.target: Twospotted spider mites (Tetranychus urticae Koch)
assigned.label: Not met

molecule: CC(C)(C)c1ccc(CCOc2ncnc3ccc(Br)cc23)cc1
tested.target: Twospotted spider mites (Tetranychus urticae Koch)
assigned.label: Met

molecule: Fc1cccc2c(NCC(c3ccccc3)c3ccccc3)ncnc12
tested.target: Twospotted spider mites (Tetranychus urticae Koch)
assigned.label: Met

molecule: FC(F)(F)c1cccc(CCOc2ncnc3ccccc23)c1
tested.target: Twospotted spider mites (Tetranychus urticae Koch)
assigned.label: Met

molecule: COc1ccc(CCOc2ncnc3c(F)cccc23)cc1OC
tested.target: Twospotted spider mites (Tetranychus urticae Koch)
assigned.label: Met

molecule: CCCCOc1ccc(CCOc2ncnc3ccccc23)cc1 [Example 180, 4-[2-(4-butoxyphenyl)ethoxy]quinazoline]
tested.target: Twospotted spider mites (Tetranychus urticae Koch)
assigned.label: Not met

molecule: Clc1cccc(CCOc2ncnc3ccccc23)c1 [Example 41, 4-[2-(3-chlorophenyl)ethoxy]quinazoline]
tested.target: Twospotted spider mites (Tetranychus urticae Koch)
assigned.label: Not met

molecule: C=CC(CCOc1ncnc2ccccc12)CCc1ccccc1 (stereo not shown)
tested.target: Twospotted spider mites (Tetranychus urticae Koch)
assigned.label: Not met

molecule: Cc1ccc(CCOc2ncnc3c(F)cccc23)cc1
tested.target: Twospotted spider mites (Tetranychus urticae Koch)
assigned.label: Met

molecule: CC(C)c1ccc(CCCOc2ncnc3ccccc23)cc1
tested.target: Twospotted spider mites (Tetranychus urticae Koch)
assigned.label: Met

molecule: c1ccc(Oc2cccc(CCOc3ncnc4ccccc34)c2)cc1 [Example 68, 4-[2-(3-phenoxyphenyl)ethoxy]quinazoline]
tested.target: Twospotted spider mites (Tetranychus urticae Koch)
assigned.label: Not met

molecule: c1ccc2c(CCOc3ncnc4ccccc34)cccc2c1 [Example 91, 4-[2-(1-naphthyl)ethoxy]quinazoline]
tested.target: Twospotted spider mites (Tetranychus urticae Koch)
assigned.label: Met

molecule: c1ccc(Oc2ccccc2CCNc2ncnc3ccccc23)cc1
tested.target: Twospotted spider mites (Tetranychus urticae Koch)
assigned.label: Met

molecule: CC(C)c1cccc(C(C)C)c1OCCOc1ncnc2ccccc12
tested.target: Twospotted spider mites (Tetranychus urticae Koch)
assigned.label: Met

molecule: Fc1cccc2c(OCCc3cccc(C(F)(F)F)c3)ncnc12
tested.target: Twospotted spider mites (Tetranychus urticae Koch)
assigned.label: Not met

molecule: CCCCOc1ccc(CCOc2ncnc3c(F)cccc23)cc1
tested.target: Twospotted spider mites (Tetranychus urticae Koch)
assigned.label: Not met
